- Test system: PANC-1
- test.method.notes: cells
- experimental.context: Homo sapiens, PANC-1, 48 h
- Description: Antiproliferative activity against human PANC-1 cells assessed as inhibition of cell growth incubated for 48 hrs by propidium iodide staining based fluorometer assay
IC50 values by entry

{"compound": "COc1ccc2c(c1)CC/C(=C\\c1cc(OC)c(OC)c(OC)c1Br)C2=O", "measurement.units": "µM", "IC50": 1.4}
{"compound": "COc1ccc(/C=C2\\CCc3ccc([N+](=O)[O-])cc3C2=O)c(Cl)c1OC", "measurement.units": "µM", "IC50": 1.9}
{"compound": "COc1cc(/C=C2\\CN(C)C/C(=C\\c3cc(OC)c(OC)c(OC)c3Br)C2=NO)c(Br)c(OC)c1OC", "measurement.units": "µM", "IC50": 0.09}
{"compound": "COc1ccc(OC)c2c1CCC(=C\\c1cc(OC)c(OC)c(OC)c1Br)/C2=N\\O", "measurement.units": "µM", "IC50": 0.7}
{"compound": "COc1cc(/C=C2\\CCC/C(=C\\c3cc(OC)c(OC)c(OC)c3Br)C2=NO)c(Br)c(OC)c1OC", "measurement.units": "µM", "IC50": 2.2}
{"compound": "COc1cc(/C=C2\\CNC/C(=C\\c3cc(OC)c(OC)c(OC)c3Br)C2=O)c(Br)c(OC)c1OC", "measurement.units": "µM", "IC50": 4.2}
{"compound": "COc1cccc(/C=C2\\CCc3c(O)cccc3C2=O)c1Cl", "measurement.units": "µM", "IC50": 4.2}
{"compound": "COc1cc(/C=C2\\CCC/C(=C\\c3cc(OC)c(OC)c(OC)c3Br)C2=O)c(Br)c(OC)c1OC", "measurement.units": "µM", "IC50": 2.4}
{"compound": "COc1cc(/C=C2\\CCc3ccc([N+](=O)[O-])cc3\\C2=N\\O)c(Br)c(OC)c1OC", "measurement.units": "µM", "IC50": 0.02}
{"compound": "COc1ccc(/C=C2\\CC(C)c3ccccc3C2=O)c(Cl)c1OC (stereo not given)", "measurement.units": "µM", "IC50": 7.5}
{"compound": "COc1cccc2c1CC/C(=C\\c1cc(OC)c(OC)c(OC)c1Br)C2=O", "measurement.units": "µM", "IC50": 4.2}
{"compound": "CCN(CC)CCO/N=C1\\C(=C\\c2cc(OC)c(OC)c(OC)c2Br)CCc2c(OC)ccc(OC)c21", "measurement.units": "µM", "IC50": 2.7}
{"compound": "COc1cccc(/C=C2\\CCc3ccc(F)cc3C2=O)c1Cl", "measurement.units": "µM", "IC50": 12.4}
{"compound": "COc1cccc(/C=C2\\CN(Cc3ccccc3)C/C(=C\\c3cccc(OC)c3Cl)C2=O)c1Cl", "measurement.units": "µM", "IC50": 17.5}
{"compound": "COc1ccc(/C=C2\\CCC/C(=C\\c3ccc(OC)c(OC)c3Cl)C2=O)c(Cl)c1OC", "measurement.units": "µM", "IC50": 4.2}
{"compound": "COc1ccc(/C=C2\\CN(C)C/C(=C\\c3ccc(OC)c(OC)c3Cl)C2=O)c(Cl)c1OC", "measurement.units": "µM", "IC50": 3.4}
{"compound": "COc1cc2c(cc1OC)C(=O)/C(=C/c1cc(OC)c(OC)c(OC)c1Br)CC2", "measurement.units": "µM", "IC50": 2.6}
{"compound": "COc1cc2c(cc1OC)C(=O)/C(=C/c1ccc(OC)c(OC)c1Cl)CC2", "measurement.units": "µM", "IC50": 5.4}
{"compound": "COc1cccc(/C=C2\\CCc3ccc(Cl)cc3C2=O)c1Cl", "measurement.units": "µM", "IC50": 12.4}
{"compound": "COc1ccc(/C=C2\\CNC/C(=C\\c3ccc(OC)c(OC)c3Cl)C2=O)c(Cl)c1OC", "measurement.units": "µM", "IC50": 6.5}
